# Tested on: UACC-257 melanoma
# assay.comment: NCI tumour cell line growth inhibition, 48 h
Can you tell me TGI for the items I'm about to list?

Record excerpt, results attached:
CCCCN(CCCC)C(=O)/C(CC(=O)c1cccc2ccccc12)=N\NC(=O)c1cc2ccccc2cc1O ... 52.8 µM
CC(=O)OC1C(COC(=O)c2ccccc2)OC(Nc2ncc(-c3ccc(Br)cc3)s2)C(OC(=O)c2ccccc2)C1OC(=O)c1ccccc1 (stereo unspecified) ... > 100 µM
O=S(=O)(NCCCNc1nccc(-c2c(-c3ccc(F)cc3)nc3sccn23)n1)c1ccc2ccccc2c1 ... > 100 µM
C[N+](C)(C)CC1CCCCC1O (stereo unspecified) ... > 100 µM
COC(=O)C1(C)Cc2cc(OC(C)=O)c(OC(C)=O)cc2N1 (stereo unspecified) ... 11.4 µM

Quick request: TGI for each listed item, please.
1. COc1cc2c(cc1Cc1c(F)cccc1Cl)nc(-c1c(F)cccc1Cl)n2Cc1c(F)cccc1Cl
2. CCN(C(=O)/C=C/c1ccco1)c1ccccc1
3. CC(=O)N1CCC2(c3ccccc3N(C(C)=O)C2c2ccc(O)cc2)C1C(=O)O (stereo unspecified)

1. > 100 µM
2. > 100 µM
3. > 100 µM

---

# Test system: UO-31 renal
# assay.comment: NCI tumour cell line growth inhibition, 48 h
So I've got a bunch of compounds here, and I need their TGI values.
Numbers only, in µM.

CN1/C(=C\C=C\C2=[N+](C)c3ccccc3C2(C)C)C(C)(C)c2ccccc21 ... 3.23
CN(C)CCC(=O)/C=C\c1ccccc1 ... 34

Please turn your attention to the following entry.
# return TGI of `CCCCn1c(-c2ccc([N+](=O)[O-])cc2)cs/c1=N/N=C1\C(=O)Nc2ccc(Br)cc21` (system: UO-31 renal)
34.2

---

# Test system: SK-MEL-5 melanoma
# assay.comment: NCI tumour cell line growth inhibition, 48 h
parameter: TGI

These recorded examples may help you get a feel for the data.
c1c[nH]c(CN2CCOCC2)n1 ... > 100 µM
Cn1cc(C2=C(c3cn(C4CCN(Cc5ccccn5)CC4)c4ccccc34)C(=O)NC2=O)c2ccccc21 ... > 25.9 µM
O=C(O)[C@H](c1ccccc1)[C@@H](C(=O)O)c1ccccc1 ... > 100 µM
Cc1cn(-c2cc(F)cc(NC(=O)c3ccc(C)c(Nc4nccc(-c5cccnc5)n4)c3)c2)cn1 ... > 100 µM
Cc1c(C(=O)O)oc2ccc([N+](=O)[O-])cc12 ... > 100 µM

Kindly consider the entry below.
Please look at COc1cc2c(cc1OC)C(C(=O)c1cccc(OC)c1OC)C(=O)N(C)CC2 (stereo unspecified) and tell me its recorded TGI on SK-MEL-5 melanoma.
> 100 µM

---

# System: KM12 colon
# assay.comment: NCI tumour cell line growth inhibition, 48 h
Assignment: determine reported TGI for the given compounds.

Use the examples below as a reference point.
O=c1c2cc(Br)ccc2nc(CCl)n1-c1ccc(O)c([N+](=O)[O-])c1 ... 39.1 µM
O=c1cc(/C=C/c2ccccc2)[nH]c2cc3c(cc12)OCO3 ... 17.7 µM
N#Cc1ccc(NC(=O)C(CC(=O)OCc2ccccc2)NC(=O)OCc2ccccc2)cc1 (stereo not drawn) ... > 100 µM
CCCCN(CCCC)C(=O)/C(CC(=O)c1cccc2ccccc12)=N\NC(=O)c1cc2ccccc2cc1O ... > 100 µM
COC(=O)C1(O)CC(=O)CCC1c1ccc(OC)cc1 (stereo not drawn) ... > 100 µM

# map each compound to its TGI
1. COC(=O)C1(Cc2ccc3c(c2)CCC3)Cc2ccccc2C1
2. O=C(Nc1ccc(Cl)c(Cl)c1)NS(=O)(=O)c1cnccc1Oc1ccc(F)cc1
3. O=C1OCC2=C1C(c1ccccc1)c1cc3c(cc1N2CCO)OCO3 (stereo not drawn)

["> 100 µM", "16.7 µM", "> 50 µM"]
